- TEST TARGET: Gal(b1-3)GlcNAc(b1-3)Gal(b1-4)GlcNAc(b1-2)[Gal(b1-3)GlcNAc(b1-3)Gal(b1-4)GlcNAc(b1-6)]Man(a1-6)[Gal(b1-3)GlcNAc(b1-3)Gal(b1-4)GlcNAc(b1-2)Man(a1-3)]Man(b1-4)GlcNAc(b1-4)[Fuc(a1-6)]GlcNAc
- METHOD: glycan array binding signal (z-score within array); higher = stronger binding
- PROTOCOL CONDITIONS: glycan notation: IUPAC condensed, linker removed
Many of the other results were omitted from the sample, so the strongest signals are more common in it than they were.
OUTCOME MEASURE: glycan array binding signal (z-score)

Prompt: Supply reported glycan array binding signal (z-score) belonging to this binder: Vd2LysM (Verticillium dahliae) (protein) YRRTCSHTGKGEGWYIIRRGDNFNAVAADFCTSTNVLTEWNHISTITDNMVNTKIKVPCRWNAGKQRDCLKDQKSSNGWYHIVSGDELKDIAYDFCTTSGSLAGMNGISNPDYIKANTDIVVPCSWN
Response: 6.69

Prompt: Supply reported glycan array binding signal (z-score) belonging to this binder: SJCP3842 (Schistosoma japonicum) (protein) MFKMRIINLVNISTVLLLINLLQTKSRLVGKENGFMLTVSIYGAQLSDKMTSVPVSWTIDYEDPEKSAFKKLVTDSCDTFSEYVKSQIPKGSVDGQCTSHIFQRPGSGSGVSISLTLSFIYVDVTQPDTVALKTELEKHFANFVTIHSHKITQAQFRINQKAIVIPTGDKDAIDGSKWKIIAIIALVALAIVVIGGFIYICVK
Response: 1.25

Prompt: Supply reported glycan array binding signal (z-score) belonging to this binder: Epa8 (Candida glabrata) (protein) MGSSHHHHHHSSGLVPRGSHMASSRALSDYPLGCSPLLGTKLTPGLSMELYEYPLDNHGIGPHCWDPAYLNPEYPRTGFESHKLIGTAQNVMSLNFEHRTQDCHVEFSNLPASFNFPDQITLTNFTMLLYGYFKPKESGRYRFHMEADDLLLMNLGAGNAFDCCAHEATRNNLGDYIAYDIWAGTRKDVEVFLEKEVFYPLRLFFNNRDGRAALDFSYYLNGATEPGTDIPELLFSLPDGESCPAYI
Response: 2.13

Prompt: Supply reported glycan array binding signal (z-score) belonging to this binder: AFL5 (Aspergillus fumigatus), Q4WB00 (protein) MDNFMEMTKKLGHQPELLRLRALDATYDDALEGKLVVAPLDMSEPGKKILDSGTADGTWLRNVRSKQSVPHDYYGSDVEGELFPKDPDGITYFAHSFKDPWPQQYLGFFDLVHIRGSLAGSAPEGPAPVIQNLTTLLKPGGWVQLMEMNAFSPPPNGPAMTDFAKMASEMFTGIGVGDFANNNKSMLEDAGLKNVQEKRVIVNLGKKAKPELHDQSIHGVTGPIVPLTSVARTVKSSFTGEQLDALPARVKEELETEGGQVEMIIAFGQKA
Response: 1.17

Prompt: Supply reported glycan array binding signal (z-score) belonging to this binder: CBP21 (Serratia marcescens), O83009 (protein) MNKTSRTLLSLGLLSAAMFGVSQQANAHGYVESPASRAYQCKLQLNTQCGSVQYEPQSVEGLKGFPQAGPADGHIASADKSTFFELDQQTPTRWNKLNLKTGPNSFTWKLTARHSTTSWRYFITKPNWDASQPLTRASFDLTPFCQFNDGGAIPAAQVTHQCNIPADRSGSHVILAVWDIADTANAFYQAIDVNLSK
Response: 3.27

Prompt: Supply reported glycan array binding signal (z-score) belonging to this binder: Als3-41 (Candida albicans) (protein) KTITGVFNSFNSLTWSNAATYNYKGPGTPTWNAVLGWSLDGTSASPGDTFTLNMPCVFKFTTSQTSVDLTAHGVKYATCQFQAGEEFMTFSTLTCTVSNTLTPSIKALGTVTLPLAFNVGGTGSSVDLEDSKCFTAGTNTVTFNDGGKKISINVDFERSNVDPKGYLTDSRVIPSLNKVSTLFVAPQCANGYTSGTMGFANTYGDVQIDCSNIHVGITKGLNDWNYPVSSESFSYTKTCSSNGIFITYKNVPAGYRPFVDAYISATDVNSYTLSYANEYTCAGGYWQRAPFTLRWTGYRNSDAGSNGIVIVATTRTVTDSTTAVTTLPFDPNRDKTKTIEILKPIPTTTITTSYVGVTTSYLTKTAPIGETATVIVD
Response: 0.669

Prompt: Supply reported glycan array binding signal (z-score) belonging to this binder: AFL6 (Aspergillus fumigatus), Q4WKJ1 (protein) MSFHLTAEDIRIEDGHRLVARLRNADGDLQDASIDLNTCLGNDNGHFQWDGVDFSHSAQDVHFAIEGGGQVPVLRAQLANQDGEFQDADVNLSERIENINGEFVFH
Response: 1.91

Where do the numbers come from? From the supplement of paper PMC8728848.
